Biological target: T1, CLTC 1-363 Clathrin_propel+Clathrin-link (domain begin residue: 1, domain end residue: 363), Q00610
T1 chain: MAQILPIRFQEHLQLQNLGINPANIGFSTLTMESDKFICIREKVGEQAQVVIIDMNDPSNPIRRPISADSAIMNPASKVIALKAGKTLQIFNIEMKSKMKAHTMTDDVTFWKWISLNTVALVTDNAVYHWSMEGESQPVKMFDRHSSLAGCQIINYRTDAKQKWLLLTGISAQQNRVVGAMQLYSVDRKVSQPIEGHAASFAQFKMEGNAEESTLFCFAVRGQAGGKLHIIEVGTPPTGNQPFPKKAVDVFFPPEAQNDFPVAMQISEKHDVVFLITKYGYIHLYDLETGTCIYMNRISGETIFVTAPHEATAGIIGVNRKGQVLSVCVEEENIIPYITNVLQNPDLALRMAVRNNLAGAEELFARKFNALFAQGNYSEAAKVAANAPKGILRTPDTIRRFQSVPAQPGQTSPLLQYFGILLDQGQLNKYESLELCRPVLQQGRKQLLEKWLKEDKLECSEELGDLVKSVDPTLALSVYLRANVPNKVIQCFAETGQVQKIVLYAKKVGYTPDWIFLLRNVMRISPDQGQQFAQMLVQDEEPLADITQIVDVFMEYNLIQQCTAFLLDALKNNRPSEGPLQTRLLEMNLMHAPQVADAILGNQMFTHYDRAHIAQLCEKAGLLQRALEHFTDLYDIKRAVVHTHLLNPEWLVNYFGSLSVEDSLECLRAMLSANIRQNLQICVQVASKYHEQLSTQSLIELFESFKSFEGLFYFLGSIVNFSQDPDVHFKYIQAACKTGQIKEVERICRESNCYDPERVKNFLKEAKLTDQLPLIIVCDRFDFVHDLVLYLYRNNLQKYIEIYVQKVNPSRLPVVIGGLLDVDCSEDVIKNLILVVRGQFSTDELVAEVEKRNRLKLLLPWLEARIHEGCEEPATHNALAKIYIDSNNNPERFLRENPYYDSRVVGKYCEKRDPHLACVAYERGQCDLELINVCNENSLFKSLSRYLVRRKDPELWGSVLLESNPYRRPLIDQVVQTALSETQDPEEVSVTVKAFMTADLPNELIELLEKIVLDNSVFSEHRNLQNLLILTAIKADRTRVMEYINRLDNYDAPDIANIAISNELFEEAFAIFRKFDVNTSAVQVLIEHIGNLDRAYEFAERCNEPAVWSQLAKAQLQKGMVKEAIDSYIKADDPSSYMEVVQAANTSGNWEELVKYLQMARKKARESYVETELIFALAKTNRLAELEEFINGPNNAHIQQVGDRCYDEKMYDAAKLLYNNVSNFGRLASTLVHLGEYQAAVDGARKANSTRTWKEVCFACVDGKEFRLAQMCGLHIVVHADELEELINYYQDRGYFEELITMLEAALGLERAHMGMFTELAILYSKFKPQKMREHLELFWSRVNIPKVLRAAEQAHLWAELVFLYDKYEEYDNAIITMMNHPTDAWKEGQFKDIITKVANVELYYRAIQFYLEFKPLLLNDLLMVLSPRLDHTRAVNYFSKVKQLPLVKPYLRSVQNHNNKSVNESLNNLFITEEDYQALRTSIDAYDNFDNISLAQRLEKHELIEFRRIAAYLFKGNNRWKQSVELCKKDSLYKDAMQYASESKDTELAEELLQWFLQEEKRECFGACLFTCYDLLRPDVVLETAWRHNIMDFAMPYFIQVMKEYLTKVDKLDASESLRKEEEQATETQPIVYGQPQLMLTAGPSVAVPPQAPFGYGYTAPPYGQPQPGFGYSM
Test: phage ELISA signal ratio (GST-PRM binding over GST background); higher = stronger binding of peptide-phage to the PRM
measure_name: phage ELISA signal ratio

| binder | endpoint_result |
| --- | --- |
| DWAQVLWQDAHDWPVY | 23.9 |
| DLIWWTDLTEEYGTHV | 21.9 |
| DQQQWDDMDWLATWML | 32.5 |
| WELQWDAIWGFPDELA | 30.6 |
| MYEFLIEPEDDWWWWN | 26.5 |
| SPFVYDIVDLGFPSIM | 22.5 |
| DLMWWPETELHQGSWS | 17.3 |
